Tested on: CCRF-CEM leukemia
Assay: NCI-60 one-dose screen, 48 h
Settings: 10 µM unless noted
This is part of a sample that, as a whole, favours compounds with a hit. Of some 83,000 tested, about 20% had one in any assay. Activity calls are given as the source filed them. How the source made its calls: active means growth percent below 10; inactive means the rest.
Classes used: 1 = active, 0 = inactive

molecule: C=CC(=O)N[C@H](/C=C/C(=O)OCC)Cc1ccc(-c2cc(Cl)cc(Cl)c2)cc1
discrete.label: 0

molecule: COc1ccc(C(=O)/C=C/c2ccc(/C=C/c3cc(OC)c(OC)c(OC)c3)cc2)cc1
discrete.label: 0

molecule: COc1ccc(C(=O)c2cc(OC)c(OC)c(OC)c2)cc1/C=C/C(=O)c1ccc(O)cc1
discrete.label: 0

molecule: O=c1c2cccc3c(Nc4ccc(F)cc4)ccc(c32)c2nc3ccccc3n12
discrete.label: 0

molecule: COc1cc(OC)c(C(=O)/C=C/c2cccc(C#N)c2)c(OC)c1
discrete.label: 1

molecule: Nc1nc(Cl)c2c(ncn2Cc2ccc(CCl)cc2)n1
discrete.label: 1

molecule: OCc1c(-c2ccccc2)nc2sccn12
discrete.label: 0

molecule: O=C1NCC(c2cc3ccccc3[nH]c2=O)Nc2ccccc21 (stereo not drawn)
discrete.label: 0

molecule: CN(C)CCCNC(=O)C(c1ccccc1)c1ccccc1
discrete.label: 0

molecule: O=C(NCCc1c[nH]c2ccccc12)C1Cc2ccccc2CN1C(=O)c1ccco1 (stereo not drawn)
discrete.label: 0

molecule: CCCCC(N)(C(=O)O)C1CCCC1 (stereo not drawn)
discrete.label: 0

molecule: CC(C)CCC[C@@H](C)[C@H]1CC[C@H]2[C@@H]3CC[C@H]4C/C(=N/O)CC[C@]4(C)[C@H]3CC[C@]12C
discrete.label: 0

molecule: COc1cccc(-c2nc3sccn3c2-c2ccnc(NCCCNS(=O)(=O)c3ccc(F)cc3)n2)c1
discrete.label: 0

molecule: CC(=O)/C=C/c1cc2cc(Cl)ccc2[nH]c1=O
discrete.label: 0

molecule: O=C(O)c1ccc(-n2c(=O)c3ccccc3c3ccccc3c2=O)cc1
discrete.label: 0

molecule: CCOC(=O)CC(C#N)(CC(=O)OCC)C(=O)OCC
discrete.label: 0

molecule: Cc1ccc(S(=O)(=O)OC2COCOC2C(OS(=O)(=O)c2ccc(C)cc2)C2OCOCC2OS(=O)(=O)c2ccc(C)cc2)cc1 (stereo not drawn)
discrete.label: 0

molecule: O=C(Nc1ccc(Cl)cc1)c1cc(-c2ccc(F)cc2)c2sc(=O)[nH]c2n1
discrete.label: 0

molecule: COc1cc(CCn2nnc3c(Nc4ccc(N5CCOCC5)cc4)ncnc32)cc(OC)c1
discrete.label: 0

molecule: CCCCOc1nc2c(C)cccc2cc1C1CNC(=O)c2ccccc2N1 (stereo not drawn)
discrete.label: 0

molecule: CC(C)(C)OC(=O)N[C@@H](Cc1ccccc1)C(=O)N(Cc1ccccc1)C1(C(=O)NCc2ccccc2)CCN(Cc2ccccc2)CC1
discrete.label: 0

molecule: O=C(c1ccccc1)C(Cl)C(Cl)c1ccccc1 (stereo not drawn)
discrete.label: 1

molecule: O=S(=O)(NCCCNc1nccc(-c2c(-c3ccc(F)c(O)c3)nc3sccn23)n1)c1ccc(Cl)cc1
discrete.label: 0

---

In this section, each of the molecules is paired with its reported growth.
Tested on: OVCAR-8 ovarian
Assay: NCI-60 one-dose screen, 48 h (100 = growth as untreated, 0 = no growth, -100 = all killed)
Details: 10 µM unless noted
Compounds without any hit were thinned out: in the full panel of roughly 83,000, 20% have a hit.

molecule: CCCCCCCCCCCCNC(=S)N/N=C/c1ccc(Cl)c(Cl)c1
unit.text: %
growth: 100

molecule: O=C(Nc1cccc(C(F)(F)F)c1)Nc1ccc(OCc2nnc(-c3ccccc3)o2)c(F)c1
unit.text: %
growth: 38.5

molecule: COc1ccc(-c2nc3sccn3c2-c2ccnc(NCCCNS(=O)(=O)c3ccc(C)cc3)n2)cc1
unit.text: %
growth: 25

molecule: CC[C@H](C)[C@@H]1NC(=O)[C@H]([C@@H](C)O)NC(=O)C(Cc2ccccc2)NC(=O)[C@@H]2CCCN2C(=O)C(C(C)C)NC(=O)C(Cc2ccccc2)NC(=O)CNC(=O)[C@@H]2CCCN2C1=O (stereo partly specified)
unit.text: %
growth: 68.3

molecule: CC1=C(C#N)C(C)(C)C(C#N)=C(C)N1
unit.text: %
growth: 100

molecule: COC(=O)CC/C(C)=N\Nc1ccc([N+](=O)[O-])cc1
unit.text: %
growth: 59.1

molecule: CCN(CC)c1cc(/C=C/c2ccc(OC)c(OC)c2)nc2cc(F)c(F)cc12
unit.text: %
growth: 36

molecule: COc1ccc(/C=C2\C(=O)N(C(=O)c3csc(NC(C)=O)n3)N=C2C)cc1
unit.text: %
growth: 96

molecule: c1ccc2nc(-c3ccc4ccccc4n3)ccc2c1
unit.text: %
growth: 98.6

molecule: CCCCCCc1nc2c(c(C)nn2-c2ccccc2)c2c1CCCCC2
unit.text: %
growth: 107

molecule: O=S(=O)(O)CCl
unit.text: %
growth: 100

---

In this section, each of the compounds is paired with its reported growth.
Tested on: M14 melanoma
Assay: NCI-60 one-dose screen, 48 h (100 = growth as untreated, 0 = no growth, -100 = all killed)
Settings: 10 µM unless noted
This is part of a sample that, as a whole, favours compounds with a hit. Of some 83,000 tested, about 20% had one in any assay.

compound: COC(=O)c1ccc(C)cc1
growth, %: 116
--
compound: c1cc(-c2ccc3c(c2)OCO3)n2nccc2n1
growth, %: 109
--
compound: CC(Cc1nnc(SCC(=O)Nc2ccc(I)cc2)n1N)c1ccccc1 (centres undefined)
growth, %: 95.3
--
compound: CC(C)CCN(CCCNc1c2c(nc3ccccc13)CCCC2)CCC(C)C
growth, %: 35.9
--
compound: O=C(O)C(Cc1ccccc1)N1C(=O)/C(=C/C(Cl)=C/c2ccc([N+](=O)[O-])cc2)SC1=S (centres undefined)
growth, %: -13.7
--
compound: C#CCN1C(=O)/C(=c2\sc3n(c2=O)C2C(NN=3)N(CC)C(=O)N2CC)c2ccccc21 (centres undefined)
growth, %: 26.1
--
compound: ClC1=C(Cl)C(Cl)=C(Cl)C1=Cc1ccc(Cl)cc1Cl
growth, %: -30.1
--
compound: CC(=O)Nc1nc(C(=O)N2N=C(C)/C(=C/c3ccccc3)C2=O)cs1
growth, %: 95.2
--
compound: Cc1nn(-c2ccc(Cl)cc2)c(=O)n1CCOc1ccccc1Cl
growth, %: 98.8

---

Test system: SK-MEL-28 melanoma
Assay: NCI-60 one-dose screen, 48 h
Conditions: 10 µM unless noted
This is part of a sample that, as a whole, favours compounds with a hit. Of some 83,000 tested, about 20% had one in any assay. Activity calls are given as the source filed them. The calls were made as follows: active = growth percent below 10; inactive = the rest.
Classes used: 1 = active, -1 = inactive

molecule: Cc1ccc(S(=O)(=O)OCC(=O)Nc2ccc(C(=O)O)c(O)c2)cc1
discrete.label: -1
//
molecule: CC(C)C[C@H](NC(=O)[C@H](Cc1ccccc1)n1ccc(N2CCCCC2)cc1=O)B(O)O
discrete.label: -1
//
molecule: NC(=O)c1ccc2c(c1)OCO2
discrete.label: -1
//
molecule: CC(=O)Oc1cccc(OC(C)=O)c1OC(C)=O
discrete.label: -1
//
molecule: COC12CC(=O)C(C(C)=O)=C(O)C1(C)c1c(O)c(C)c(O)c(C(C)=O)c1O2 (configuration not stated)
discrete.label: -1
//
molecule: CCCCNC(=O)NS(=O)(=O)c1ccc(N2N=C(c3ccc(C)cc3C)CC2c2ccc(OC)cc2)cc1 (configuration not stated)
discrete.label: -1
//
molecule: COc1cc(/C=C2\CCCC3=C2N=C2SC(C)=NN2C3c2cc(OC)c(OC)c(OC)c2)cc(OC)c1OC (configuration not stated)
discrete.label: -1
//
molecule: O=[N+]([O-])c1ccc(S(=O)(=O)N2CCN(c3ccnc4cc(Cl)ccc34)CC2)c([N+](=O)[O-])c1
discrete.label: -1
//
molecule: COc1cc(/C=C\c2cc(OC)c(OC)c(OC)c2)cc(N/C=C\C(=O)c2c[nH]c3ccccc23)c1OC
discrete.label: 1
//
molecule: COc1ccc(/C=C\c2cc(OC)c(OC)c(OC)c2)c(NS(=O)(=O)c2ccc(C(C)(C)C)cc2)c1O
discrete.label: -1
//
molecule: O=C(Nc1ccc(I)cc1)c1cc([N+](=O)[O-])ccc1O
discrete.label: -1
//
molecule: OC1CC2c3ccccc3C1c1ccccc12 (configuration not stated)
discrete.label: -1
//
molecule: CC(C)(C)c1cc(-c2nc3ccc(N4CCN(CCO)CC4)cc3[nH]2)cc(C(C)(C)C)c1O
discrete.label: -1
//
molecule: Clc1nc(-c2cccnc2)nc2sc3c(c12)CCCCCC3
discrete.label: -1
//
molecule: CCC(c1ccc(OC)cc1)C(CC)c1ccc(OCC[N+](C)(C)C)cc1 (configuration not stated)
discrete.label: -1
//
molecule: CCOC(=O)C1=C(CSC(=S)N(C2CCCCC2)C2CCCCC2)N(C)C(=O)NC1c1ccccc1 (configuration not stated)
discrete.label: -1
//
molecule: COc1ccc2c(c1)NC(=O)CN2c1nc(C)nc2ccccc12
discrete.label: -1
//
molecule: O=c1oc2cc(OS(=O)(=O)c3ccccc3)c(Cl)cc2c2c1CCCCCC2
discrete.label: -1
//
molecule: O=C1C2=C(C(=O)c3c(O)ccc(O)c31)N(c1cccnc1)Cc1ccccc1O2
discrete.label: 1
//
molecule: C/C1=C\CCC2(C)OC2CC2CCC(C)(O)C(CC1)C2(C)C (configuration not stated)
discrete.label: -1
//
molecule: CN(C)c1ccc(/C=C\N=Nc2ccc(Br)cc2)cc1
discrete.label: -1
//
molecule: COc1ccc(-c2nnc(COc3ccc(NS(=O)(=O)c4ccc(OC)cc4)cc3F)o2)cc1
discrete.label: -1
//
molecule: COc1cc2c3c(c(=O)oc2cc1OS(=O)(=O)c1ccc(C(F)(F)F)cc1)CCCCC3
discrete.label: -1
//
molecule: O=c1cc(C2NCCc3c2[nH]c2ccccc32)c2c(ccc3ccccc32)o1 (configuration not stated)
discrete.label: -1
//
molecule: C=C1C(=O)O[C@H]2[C@H]1CC/C(COC(=O)NCCc1ccc(Br)cc1)=C\CC[C@@]1(C)O[C@@H]21
discrete.label: -1
//
molecule: O=C(CNc1c(Cl)cccc1Cl)Nc1ccc(-c2nc3ccccc3s2)cc1
discrete.label: -1
//
molecule: N#CC1=C(N)OC2=C(C(=O)CCC2)C1c1ccco1 (configuration not stated)
discrete.label: -1
//
molecule: COc1ccc(/C(=N\O)c2cc(OC)c(OC)c(OC)c2)c(OC)c1N
discrete.label: -1
//
molecule: CCN(CC)CCCC(C)N=c1cc(Nc2cc(=NC(C)CCCN(CC)CC)c3cc(OC)ccc3o2)oc2ccc(OC)cc12 (configuration not stated)
discrete.label: 1
//
molecule: O=C(CC(O)c1ccncc1)c1ccccc1 (configuration not stated)
discrete.label: -1
//
molecule: CNC(C)=O
discrete.label: -1
//
molecule: CNC(=O)Cc1nc(-c2cccc(NS(=O)(=O)c3c(F)cccc3F)c2F)c(-c2ccnc(Nc3ccccc3)n2)s1
discrete.label: -1
